Test system: Dopamine uptake (3H-dopamine, corpus striatum synaptosomes)
procedure_details: Inhibition of dopamine uptake in rat brain synaptosomes (corpus striatum)
Format: biochemical
condition_details: rat corpus striatum synaptosomes, 3H-dopamine, 37° C.; read-out: Inhibition of neurotransmitter uptake in synaptosomes, Dopamine IC 50
Decide using IC50 alone. Strictly below 90 nM: 1 (yes). Equal to or above 90 nM: 0 (no).

Here's what some known entries look like.
[
  {
    "compound": "CCCN1CC[C@@H](c2ccccc2)[C@@H]1/C=C/c1ccccc1 (relative stereo) [Example 3 trans]",
    "classification": "0 (no)"
  },
  {
    "compound": "CN1CC[C@@H](c2ccccc2)[C@H]1/C=C/c1ccccc1 (relative stereo) [Example 1 cis]",
    "classification": "0 (no)"
  },
  {
    "compound": "CN(C)CCCN1c2ccccc2CCc2ccccc21 [Imipramine, reference compound]",
    "classification": "0 (no)"
  },
  {
    "compound": "CCN1CC[C@@H](c2ccccc2)[C@H]1/C=C/c1ccccc1 (relative stereo) [Example 2 cis]",
    "classification": "0 (no)"
  }
]

Q. Field: below-cutoff. Rule: recorded IC50 strictly less than 90 nM. Subject: CCN1CC[C@@H](c2ccccc2)[C@@H]1/C=C/c1ccccc1 (relative stereo) [Example 2 trans]
A. 1 (yes)
